Molecular target: Human JNK 3 (Homo sapiens, UniProt P53779)
Construct: made in house; host or cells: Escherichia coli
Sequence (P53779 whole entry): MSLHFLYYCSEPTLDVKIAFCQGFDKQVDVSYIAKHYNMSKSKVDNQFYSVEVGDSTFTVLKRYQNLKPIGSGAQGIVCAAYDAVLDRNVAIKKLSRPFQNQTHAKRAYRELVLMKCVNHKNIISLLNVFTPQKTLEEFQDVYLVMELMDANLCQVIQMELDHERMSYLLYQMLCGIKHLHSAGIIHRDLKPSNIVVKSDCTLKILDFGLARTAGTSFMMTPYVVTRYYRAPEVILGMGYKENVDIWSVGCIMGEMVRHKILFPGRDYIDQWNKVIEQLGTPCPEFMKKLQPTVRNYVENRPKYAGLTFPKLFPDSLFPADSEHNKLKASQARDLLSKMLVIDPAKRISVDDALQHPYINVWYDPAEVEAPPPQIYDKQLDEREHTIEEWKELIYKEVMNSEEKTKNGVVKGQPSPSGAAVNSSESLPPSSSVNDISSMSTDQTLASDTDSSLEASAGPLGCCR
Test: Measurement of JNK 3 inhibition (GST-JNK3, GST-c-Jun substrate, [γ-33P]ATP, SPA beads)
Type: biochemical
Conditions: 50% inhibitory concentration on the enzymatic activity of JNK; 3.33 μM ATP in substrate solution, 30 minutes
pIC50: −log10 of the molar value.
MEASURED_QUANTITY: pIC50

INSERT INTO assay_data (molecule, measured_quantity, test_value) VALUES
  ('O=C(NC1CC1)c1ccc2[nH]nc(/C=C/c3ccc(F)cc3)c2c1OCCO [Example 353]', 'pIC50', 6.83),
  ('COc1c(C(=O)NCc2ncco2)ccc2[nH]nc(/C=C/c3ccc(F)cc3F)c12 [Example 992]', 'pIC50', 6.97),
  ('C[C@H](NC(=O)c1ccc2[nH]nc(/C=C/c3ccc(F)cc3)c2c1OCCCO)C(N)=O [Example 786]', 'pIC50', 6.76),
  ('NC(=O)CCOc1c(C(=O)N[C@H](CO)c2ccccc2)ccc2[nH]nc(/C=C/c3ccc(F)cc3)c12 [Example 790]', 'pIC50', 7.15),
  ('CCCNC(=O)Nc1cc2c(/C=C/c3ccc(F)cc3)n[nH]c2cc1F [Example 1056]', 'pIC50', 6.88),
  ('O=C(NC1CC1)c1ccc2[nH]nc(-c3cccc(F)c3)c2n1 [Example 56]', 'pIC50', 6.63),
  ('COc1cc(/C=C/c2n[nH]c3cc(F)c(NC(=O)CC4CC4)cc23)ccc1F [Example 1003]', 'pIC50', 6.91),
  ('O=C(NCc1ccco1)c1cnc2[nH]nc(-c3ccc4ccccc4c3)c2c1 [Example 472]', 'pIC50', 6.30);
